Origin of the recorded values: patent US20140024132A1

Tested on: endogenous urinary metabolite profiles
Test protocol: Altered endogenous urinary metabolites after a single Pu-erh tea intake, UPLC-QTOFMS and GC-TOFMS profiling
Format: in vivo
Experimental context: human urine, 1 h after Pu-erh tea intake vs pre-dose
Listing of entries alongside the reported FC (fold change).
Reply: number alone, nothing else.

Some compounds with known FC (fold change) results, for comparison:
> print(dat)
                                   compound  test.result
1                          NC(C(=O)O)C(=O)O         1.90
2  COc1cc(CC(=O)O)ccc1O [4-Hydroxy-3-methoxyphenylacetic acid]         0.39
3                                NCCCC(=O)O         3.95

INPUT: Please give the measured FC (fold change) for this compound: "COc1ccccc1O"
OUTPUT: 0.48

INPUT: // returns reported FC (fold change) for input "Oc1ccccc1"
OUTPUT: 1.04

INPUT: What value of FC (fold change) has been recorded for this entry: "CC(C)[C@H](N)C(=O)O"
OUTPUT: 2.58

* * *

Test protocol: Urine levels of absorbed (bioavailable) Pu-erh tea components after a single Pu-erh tea intake, UPLC-QTOFMS and GC-TOFMS profiling
Format: in vivo, human
Experimental context: absorbed Pu-erh tea metabolite, human urine, 1 h post-dose vs pre-dose
Value kind: FC (fold change)
Give a plain numeric answer without units written out.

# example entries with known answers
> print(dat)
                     molecule        value.kind  test.result
1  Cn1c(=O)c2[nH]cnc2n(C)c1=O  FC (fold change)        11.62
2          Cc1cnc(C)c(O)c1C=O  FC (fold change)         2.56

INPUT: Recorded FC (fold change) of O=C(O)CCC(=O)O [Succinate] , please.
OUTPUT: 1.15

INPUT: # get_value(readout='FC (fold change)', item= "NCCCC(=O)O" )
OUTPUT: 3.95

INPUT: Given the entry "Cn1cnc2c1c(=O)[nH]c(=O)n2C" , report its measured FC (fold change).
OUTPUT: 4.04

INPUT: State the recorded FC (fold change) for this entry: "Cn1c(=O)c2c(ncn2C)n(C)c1=O"
OUTPUT: 454.37

INPUT: Value lookup for FC (fold change); key = "NCC(=O)O"
OUTPUT: 1.28

INPUT: Quick one: FC (fold change) for "O=C(O)CC(O)(CC(=O)O)C(=O)O" ?
OUTPUT: 1.42

INPUT: Report FC (fold change) for "O=C(O)c1cccnc1" please.
OUTPUT: 14.31

* * *

Test protocol: Urine levels of absorbed (bioavailable) Pu-erh tea components after a single Pu-erh tea intake, UPLC-QTOFMS and GC-TOFMS profiling
Assay type: in vivo, human
Experimental context: absorbed Pu-erh tea metabolite, human urine, 3 h post-dose vs pre-dose
Reported FC (fold change) values follow for various compounds
// keep it numeric: no unit symbol after the value

> print(dat)
                                   compound        value.kind  test.result
1     Cn1c(=O)c2c(ncn2C)n(C)c1=O [Caffeine]  FC (fold change)       573.74
2                O=C(O)CCC(=O)O [Succinate]  FC (fold change)         0.90
3  O=C(O)CC(O)(CC(=O)O)C(=O)O [Citric acid]  FC (fold change)         1.76
4                        NCC(=O)O [Glycine]  FC (fold change)         1.67
5         NCCCC(=O)O [4-Aminobutanoic acid]  FC (fold change)         5.14

INPUT: Fill blank: measured FC (fold change) of the compound Cc1cnc(C)c(O)c1C=O [5-Deoxypyridoxal] is ____.
OUTPUT: 3.69

INPUT: Item Cn1cnc2c1c(=O)[nH]c(=O)n2C [Theobromine] has what recorded FC (fold change)?
OUTPUT: 6.76

INPUT: Form field: reported FC (fold change) of O=C(O)c1cccnc1 [Nicotinic acid]
OUTPUT: 62.95

INPUT: So what's the measured FC (fold change) for this one? Cn1c(=O)c2[nH]cnc2n(C)c1=O [Theophylline]
OUTPUT: 42.69

* * *

Test protocol: Urine levels of absorbed (bioavailable) Pu-erh tea components after a single Pu-erh tea intake, UPLC-QTOFMS and GC-TOFMS profiling
Assay type: in vivo, human
Experimental context: absorbed Pu-erh tea metabolite, human urine, 6 h post-dose vs pre-dose
Classification field: Criterion met = FC (fold change) at or over 4; Criterion not met = FC (fold change) under 4.

> print(dat)
                     molecule              label
1  O=C(O)CCC(=O)O [Succinate]  Criterion not met
2  O=C(O)CC(O)(CC(=O)O)C(=O)O  Criterion not met
3          Cc1cnc(C)c(O)c1C=O  Criterion not met
4              O=C(O)c1cccnc1      Criterion met
5  Cn1cnc2c1c(=O)[nH]c(=O)n2C      Criterion met

Note: attention shifts to another entry.
INPUT: Check if FC (fold change) >= 4 (inclusive). Item: "NCCCC(=O)O"
OUTPUT: Criterion met

* * *

Test protocol: Urine levels of absorbed (bioavailable) Pu-erh tea components after a single Pu-erh tea intake, UPLC-QTOFMS and GC-TOFMS profiling
Assay type: in vivo, human
Experimental context: absorbed Pu-erh tea metabolite, human urine, 12 h post-dose vs pre-dose
Method: Participants received a dose equivalent to 5 cups of commercially prepared tea. Twenty healthy men (n=10) and women (n=10) whose mean age was 25±2 years (range 22-32) were enrolled in this study, and written consent was obtained from each participant. Volunteers were provided with identical standard meals three times per day during the experiment (e.g., breakfast: milk and bread; lunch: beef and vegetables; dinner: pork and cabbage). […] Urine samples were stored at −80° C. before analysis. […]
Class assignment keyed on FC (fold change), ranges low band (below 1), middle band (1 to below 40), high band (40 or more)

Observe how each entry below is paired with its result.
> print(dat)
                     molecule      label
1                  NCCCC(=O)O  high band
2              O=C(O)c1cccnc1  high band
3  Cn1c(=O)c2c(ncn2C)n(C)c1=O  high band

INPUT: Entry "O=C(O)CC(O)(CC(=O)O)C(=O)O" belongs to which category?
OUTPUT: middle band

INPUT: Which category fits this record: O=C(O)CCC(=O)O [Succinate]
OUTPUT: low band

INPUT: Lab note: sort O=C(O)c1cc(O)cc(O)c1 [3,5-hydroxy benzoic acid] into the matching FC (fold change) band.
OUTPUT: low band

INPUT: Form field 'band' for "Cn1cnc2c1c(=O)[nH]c(=O)n2C"
OUTPUT: middle band

INPUT: State the band of "Cc1cnc(C)c(O)c1C=O"
OUTPUT: low band

INPUT: Band assignment needed for "Cn1c(=O)c2[nH]cnc2n(C)c1=O" please.
OUTPUT: middle band

INPUT: Please let me know in which category the item "NCC(=O)O" belongs.
OUTPUT: middle band

* * *

System: endogenous urinary metabolite profiles
Test protocol: Altered endogenous urinary metabolites after a single Pu-erh tea intake, UPLC-QTOFMS and GC-TOFMS profiling
Format: in vivo
Experimental context: human urine, 9 h after Pu-erh tea intake vs pre-dose
Some compounds, each annotated with its measured FC (fold change).

Worked examples follow.
> print(dat)
                               compound  test.result
1          CC(C)[C@H](N)C(=O)O [Valine]         2.32
2         COc1ccccc1O [2-Methoxyphenol]         0.41
3  NC(C(=O)O)C(=O)O [Aminomalonic acid]         0.45

INPUT: Request - read-out FC (fold change) | tested on endogenous urinary metabolite profiles | compound NCCCC(=O)O [4-Aminobutanoic acid]
OUTPUT: 39.08

INPUT: Give FC (fold change) (endogenous urinary metabolite profiles) of the following compound: COc1cc(CC(=O)O)ccc1O [4-Hydroxy-3-methoxyphenylacetic acid]
OUTPUT: 0.55

INPUT: # get_value(readout= FC (fold change), system= endogenous urinary metabolite profiles) for Oc1ccccc1 [Phenol]
OUTPUT: 1.14

* * *

Recorded FC (fold change) by entry
Test protocol: Urine levels of absorbed (bioavailable) Pu-erh tea components after a single Pu-erh tea intake, UPLC-QTOFMS and GC-TOFMS profiling
Assay type: in vivo, human
Experimental context: absorbed Pu-erh tea metabolite, human urine, 24 h post-dose vs pre-dose

INPUT: Would you kindly share the measured FC (fold change) for "Cn1c(=O)c2[nH]cnc2n(C)c1=O" ?
OUTPUT: 19.22

INPUT: State the recorded FC (fold change) for this entry: O=C(O)c1cc(O)cc(O)c1 [3,5-hydroxy benzoic acid]
OUTPUT: 0.20

INPUT: I'd like to know its FC (fold change). The compound in question is "O=C(O)c1cccnc1"
OUTPUT: 27.31

INPUT: Returns the measured FC (fold change) for the input compound. Input: "Cc1cnc(C)c(O)c1C=O"
OUTPUT: 0.81

INPUT: Fill blank: measured FC (fold change) of the compound "Cn1c(=O)c2c(ncn2C)n(C)c1=O" is ____.
OUTPUT: 46.28

INPUT: What FC (fold change) value was documented for this compound, "NCCCC(=O)O" ?
OUTPUT: 49.03

INPUT: Would you mind telling me what FC (fold change) value was observed for O=C(O)CCC(=O)O [Succinate] ?
OUTPUT: 0.93
